System: 786-0 renal
ASSAY: NCI tumour cell line growth inhibition, 48 h
Listing: TGI of selected compounds

[[record]]
compound = "CCCCC(SC(=S)N(CC)CC)C(=O)Nc1nc(CC(=O)OCC)cs1 (centres undefined)"
test_system = "786-0 renal"
result = "> 100 µM"


Reported TGI for CC(Br)C(=O)c1ccc2cc(Br)c3ccccc3c2c1 (centres undefined) was 11.7 µM

CCCCCCOC(=O)C(N)Cc1ccc(OC)cc1 (centres undefined) yielded TGI of > 100 µM

TGI reported for this compound Cc1ccc(NC(=O)C2C(=O)C(=O)N(c3ccc(C)cc3)C2=O)cc1 (centres undefined) : > 100 µM

What the record says about "S=c1cn[nH]c2ccc(Br)cc12" : TGI is > 100 µM

Reported TGI of CCOC(=O)N/N=C/C1=NN(C(=O)OCC)S(=O)C1C (centres undefined) : > 100 µM

Form: compound = "CCOC(=O)/C(=C/c1cc(OC)ccc1OC)CC(=O)O" ; TGI = > 31.6 µM

GET /value?item= "CCOP(=O)(OCC)/C(=C/c1ccccc1)CC(C)=O" &field=TGI returns > 100 µM

// TGI value for "Cn1ccnc1SC(F)(F)c1nc2ccccc2o1" : > 100 µM

====

System: PC-3 prostate
ASSAY: NCI tumour cell line growth inhibition, 48 h
ENDPOINT: TGI

Solved cases below.
[[record]]
compound = "S=C(Nc1ccc(-c2nc3ccccc3s2)cc1)Nc1ccccn1"
result = "> 71.7 µM"

[[record]]
compound = "CCOC(=O)c1ccc(-c2cccs2)n1C"
result = "> 100 µM"

[[record]]
compound = "CCN(CC)C(=O)C1=C(C)NC(C)=C(C(=O)N(CC)CC)C1"
result = "> 100 µM"

[[record]]
compound = "C[C@@]12CCC[C@@](C)(C(=O)O)C1CC[C@]13C=C(CO)[C@](O)(CCC12)C3 (stereo partly drawn)"
result = "> 100 µM"

[[record]]
compound = "CN(C)c1cc2c(Nc3ccc4nc(Cc5ccccc5)[nH]c4c3)ncnc2cn1"
result = "> 25 µM"

[[record]]
compound = "O=C(Nc1cccnc1)c1cccs1"
result = "> 100 µM"


Switching to the query record.
// TGI lookup, compound = "COc1cc(S(=O)(=O)N/N=C/C=C/c2ccccc2)c(OC)cc1NC(C)=O" , result: > 100 µM

====

System: CAKI-1 renal
ASSAY: NCI tumour cell line growth inhibition, 48 h
// reported TGI per item

Solved entries:
[[record]]
compound = "COC(=O)C1=C(C(=O)Nc2cccnc2)C2OC1(C(Cc1ccccc1)Oc1ccccc1)C1OC21 (centres undefined)"
result = "4 µM"

[[record]]
compound = "COc1ccc(C2=C(Br)C(=O)OC2)cc1Cl"
result = "51.1 µM"

[[record]]
compound = "CCOP(=O)(OCC)/C(=C/c1ccccc1)CC(C)=O"
result = "> 100 µM"

[[record]]
compound = "CC1=NN(c2cccc(Cl)c2)C(=N/c2nc3ccccc3s2)/C1=C\\C=C\\c1ccccc1"
result = "> 100 µM"

[[record]]
compound = "O=C1CCCCC1C1(O)C(=O)Nc2cc(F)ccc21 (centres undefined)"
result = "> 100 µM"

[[record]]
compound = "NS(=O)(=O)c1cc(S(N)(=O)=O)c(NC(=O)Nc2ccc(Cl)c(Cl)c2)c(Cl)c1Cl"
result = "> 100 µM"

[[record]]
compound = "CSc1c(C#N)c(O)n(-c2ccc(Cl)cc2)c(=O)c1C#N"
result = "> 100 µM"

[[record]]
compound = "O=C(CC(=O)C(=O)CC(=O)OCc1ccccc1)OCc1ccccc1"
result = "> 100 µM"

[[record]]
compound = "COC(=O)C1=C(O)C(C(=O)OC)[C@]2(O)[C@H](C(=O)OC)[C@H]1C[C@@H](c1ccccc1OC)[C@H]2C(=O)OC (some centres undefined)"
result = "17.5 µM"

[[record]]
compound = "NC(=S)SC1=NNC2(C(=O)N1)c1ccccc1-c1ccccc12"
result = "> 10 µM"


Quick note, TGI for "C/C(Sc1ccccc1)=C1/CCCN(Cc2ccccc2)C1" landed at > 100 µM

get_value(item= "Nc1ccc(-c2nc3cc(F)ccc3s2)cc1Br" , readout=TGI) returns > 100 µM

Looking up "Cc1oncc1C(=O)Nc1ccc(C(F)(F)F)cc1" , I see its TGI listed as > 100 µM

Entry under test: "Brc1ccc(-c2ccc(-c3ccc(-c4ccc(Br)s4)s3)s2)s1" . Its TGI was > 100 µM

The reported numbers originate from PubChem BioAssay (NCI).
